TARGET_OR_TEST_SYSTEM: DN-III quality control recombinant protein (produced by Fapon Biotech InC.) (dengue virus)
PROTOCOL_DETAILS: BLI, AMC sensor, antibody captured
Property: koff; scope: individual binders
A complete answer gives the number followed by the unit.

Example results:
| BINDER | koff |
| --- | --- |
| Mutation 1 (antibody, V domains shown) VH: EVQLQQSGTELVRPGALVKLSCKASGFNIKDYYVHWVKQRPRQGLEWIGWIDPENGKTLYDPKFQDKASITSDTSTNTAYLQLRSLTSEDTAVYYCVTAYVRFVYWGQGTLVTVSA VL: QIVLTQSPAIMSAFPGERVTMTCSASSSVRYMYWHQQKPGSSPRLLIYDTSNVASGVPVRFSGSGSGTSYSLTISRDEAMDAATYYCQQWSSTPRTFGGGTKLEIKR | 4.03e-05 s⁻¹ |
| Mutation 1-35 (antibody, V domains shown) VH: EVQLQQSGTELVRPGALVKLSCKASGFNIKDYYLHWVKQRPRQGLEWIGWIDPENGKTLYDPKFQDKASITSDTSTNTAYLQLRSLTSEDTAVYYCVSAYYRFVYWGQGTLVTVSA VL: QIVLTQSPAIMSAFPGERVTMTCSASTSVRYMYWHQQKPGSSPRLLIYDTSNVASGVPVRFSGSGSGTSYSLTISRDEAMDAATYYCQQWSSTPRTFGGGTKLEIKR | 4.35e-05 s⁻¹ |
| Mutation 1-32 (antibody, V domains shown) VH: EVQLQQSGTELVRPGALVKLSCKASGFNIKDYYLHWVKQRPRQGLEWIGWIDPENGKTIYDPKFQDKASITSDTSTNTAYLQLRSLTSEDTAVYYCVTAYFRFVYWGQGTLVTVSA VL: QIVLTQSPAIMSAFPGERVTMTCSASSSVRYMYWHQQKPGSSPRLLIYDTSNIASGVPVRFSGSGSGTSYSLTISRDEAMDAATYYCQQWSSTPRTFGGGTKLEIKR | 1.23e-05 s⁻¹ |
| WT 1-1 (antibody, V domains shown) VH: EVQLQQSGTELVRPGALVKLSCKASGFNIKEYYIHWVKQRPRQGLEWIGWIDPDNGKTIYDPKVQDKASITSDTSTNTAYLQLRSLTSEDTAVYYCVTAYFRFVYWGQGTLVTVSA VL: QIVLTQSPAIMSAFPGERVTMTCSASTSVKYMYWHQQKPGSSPRLLIYETSNIASGFPVRFSGSGSGTSYSLTISRDEAMDAATYYCQQQSSYPRTFGGGTKLEIKR | 2.28e-05 s⁻¹ |

Here is the next item to consider.
Please report the recorded koff for Mutation 1-1 (antibody, V domains shown) VH: EVQLQQSGTELVRPGALVKLSCKASGFNIKDYYIHWVKQRPRQGLEWIGWIDPENGKTIYDPKFQDKASITSDTSTNTAYLQLRSLTSEDTAVYYCVTAYFRFVYWGQGTLVTVSA VL: QIVLTQSPAIMSAFPGERVTMTCSASTSVRYMYWHQQKPGSSPRLLIYDTSNLASGVPVRFSGSGSGTSYSLTISRDEAMDAATYYCQQWSSYPRTFGGGTKLEIKR .
2.38e-05 s⁻¹
